assay-system: T1, recombinant biotinylated CD71 extracellular domain (Sino Biologics) with an N-terminal 6His tag (human, UniProt P02786 89-760, biotinylated (sites not given))
T1 construct: extracellular domain; also called hCD71; huCD71
T1 sequence (P02786 other isoform, or with tags, fused parts or gaps): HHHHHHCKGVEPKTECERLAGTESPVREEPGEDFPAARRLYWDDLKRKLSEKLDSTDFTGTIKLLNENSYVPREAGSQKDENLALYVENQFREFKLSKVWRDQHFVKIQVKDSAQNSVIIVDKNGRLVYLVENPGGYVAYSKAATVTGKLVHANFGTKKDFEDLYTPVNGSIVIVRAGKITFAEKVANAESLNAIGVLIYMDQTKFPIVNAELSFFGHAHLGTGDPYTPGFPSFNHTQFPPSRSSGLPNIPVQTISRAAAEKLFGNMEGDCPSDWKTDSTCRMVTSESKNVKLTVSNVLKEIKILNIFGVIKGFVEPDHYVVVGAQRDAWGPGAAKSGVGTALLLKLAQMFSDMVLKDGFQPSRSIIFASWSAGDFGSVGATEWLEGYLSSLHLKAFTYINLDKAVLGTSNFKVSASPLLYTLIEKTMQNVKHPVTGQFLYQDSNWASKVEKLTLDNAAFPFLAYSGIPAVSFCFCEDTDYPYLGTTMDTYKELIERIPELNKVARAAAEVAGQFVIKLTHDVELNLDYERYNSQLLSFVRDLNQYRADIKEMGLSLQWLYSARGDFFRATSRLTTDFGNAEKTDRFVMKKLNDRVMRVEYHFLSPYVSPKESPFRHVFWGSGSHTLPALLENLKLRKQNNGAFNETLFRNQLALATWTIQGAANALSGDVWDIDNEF
assay-notes: screening ELISA, ratio
quantity: huCD71/Fc

A. SEQ ID NO 52 (designed binder, FN3 domain) MLPAPKNLVVSRVTEDSARLSWTAPDAAFDSFKISYQEWWEDGEAIVLTVPGSERSYDLTGLKPGTEYWVNISGVKGGVQSYPLSAIFTT
B. SEQ ID NO 57 (designed binder, FN3 domain) MLPAPKNLVVSRVTEDSARLSWTAPDAAFDSFSIKYLEWWQDGEAIVLTVPGSERSYDLTGLKPGTEYYVHIAGVKGGYRSYPLSAIFTT
C. SEQ ID NO 58 (designed binder, FN3 domain) MLPAPKNLVVSRVTEDSARLSWTAPDAAFDSFTIWYAEADGWGEAIVLTVPGSERSYDLTGLKPGTEYFVDIYGVKGGYLSVPLSAIFTT
Query: Order them by huCD71/Fc, ascending: the binders above. Answer format: list of labels, ordered as asked.
Result: C, B, A
